// provenance: ChEMBL document CHEMBL5370611

The entries below are paired with their reported CC50.
- assay-summary: Cytotoxicity against human HepDE19 cells assessed as reduction in cell viability measured after 5 days by CCK-8 method
- Type: functional
- reported-conditions: HepDE19, 120 h, time 5 day
# unit: µM | format: bare number

Study these solved cases before continuing.
{"record-smiles": "O=C(Nc1ccccc1)N1CCc2[nH]nc(-c3ccc(F)cc3)c2C1", "value-type": "CC50", "result-unit": "µM", "observed-result": 59}
{"record-smiles": "O=C(NCc1ccccc1)N1CCn2ncc(-c3ccc(F)cc3)c2C1", "value-type": "CC50", "result-unit": "µM", "observed-result": 91}
{"record-smiles": "Cc1cccc(NC(=O)N2CCn3ncc(-c4ccc(F)cc4)c3C2)c1", "value-type": "CC50", "result-unit": "µM", "observed-result": 88}
{"record-smiles": "C[C@H]1Cn2ncc(N3CCCC3=O)c2CN1C(=O)Nc1ccc(F)c(Cl)c1", "value-type": "CC50", "result-unit": "µM", "observed-result": 94}

Asked: Returns the measured CC50 for the input compound. Input: O=C(Nc1ccc(F)c(Cl)c1)N1CCn2ncc(-c3ccc(F)cc3F)c2C1
Given back: 42

Asked: Same lookup for O=C(Nc1ccccc1)N1CCn2ncc(-c3ccc(F)cc3)c2C1 , please.
Given back: 66

Asked: Same lookup for O=C(Nc1ccc(F)c(F)c1)N1CCn2ncc(-c3ccc(F)cc3)c2C1 , please.
Given back: 34

Asked: Same lookup for O=C(Nc1ccc(F)c(Cl)c1)N1CCn2ncc(-c3ncc(F)cn3)c2C1 , please.
Given back: 32

====

- assay-summary: Selectivity index, ratio of CC50 for human HepDE19 cells assessed as reduction in cell viability to EC50 for HBV infected in human HepG2.2.15 cells assessed as reduction in HBV DNA replication
- Assay type: toxicity, cell-based
- reported-conditions: HBV-infected HepG2.2.15 cells (EC50)
Output true (1) for selectivity ratio not less than 200; output false (0) otherwise.

{"molecule": "O=C(Nc1ccc(F)c(Cl)c1)N1CCn2ncc(-c3ccccc3F)c2C1", "discrete-label": "true (1)"}
{"molecule": "O=C(Nc1ccc(F)cc1)N1CCn2ncc(-c3ccc(F)cc3)c2C1", "discrete-label": "true (1)"}
{"molecule": "O=C(Nc1cc(F)c(F)c(F)c1)N1CCn2ncc(-c3ccc(F)cc3)c2C1", "discrete-label": "false (0)"}
{"molecule": "O=C(Nc1cccc(Cl)c1)N1CCn2ncc(-c3ccc(F)cc3)c2C1", "discrete-label": "true (1)"}
{"molecule": "O=C(Nc1ccc(F)c(Cl)c1)N1CCn2ncc(-c3ccc(F)cn3)c2C1", "discrete-label": "true (1)"}
{"molecule": "O=C(Nc1ccccc1)N1CCc2[nH]nc(-c3ccc(F)cc3)c2C1", "discrete-label": "false (0)"}
{"molecule": "O=C(Nc1ccccc1)N1CCn2nnc(-c3ccc(F)cc3)c2C1", "discrete-label": "true (1)"}
{"molecule": "C[C@@H]1[C@H](C)N(C(=O)Nc2cc(F)c(F)c(F)c2)Cc2c(N3CCCC3=O)cnn21", "discrete-label": "true (1)"}

Asked: Exam item: decide whether the reported selectivity ratio for CCc1cccc(NC(=O)N2CCn3ncc(-c4ccc(F)cc4)c3C2)c1 is at least 200.
Given back: true (1)

Asked: Same lookup for C[C@H]1CN(C(=O)Nc2ccc(F)c(Cl)c2)Cc2c(-c3ccc(F)cc3)cnn21 , please.
Given back: true (1)

Asked: Same lookup for Cc1cc(NC(=O)N2CCn3ncc(-c4ccc(F)cc4)c3C2)ccc1F , please.
Given back: true (1)

Asked: Same lookup for O=C(Nc1ccccc1F)N1CCn2ncc(-c3ccc(F)cc3)c2C1 , please.
Given back: false (0)

Asked: Same lookup for O=C(Nc1ccc(F)c(Cl)c1)N1CCn2ncc(N3CCOCC3)c2C1 , please.
Given back: true (1)

Asked: Same lookup for O=C(Nc1cc(F)c(F)c(F)c1)N1CCn2ncc(N3CCCC3=O)c2C1 , please.
Given back: false (0)

Asked: Same lookup for Cc1cccc(NC(=O)N2CCn3ncc(-c4ccc(F)cc4)c3C2)c1 , please.
Given back: true (1)

Asked: Same lookup for O=C(Nc1ccc(Cl)c(F)c1)N1CCn2ncc(-c3ccc(F)cc3)c2C1 , please.
Given back: true (1)

Asked: Same lookup for C[C@@H]1CN(C(=O)Nc2ccc(F)c(Cl)c2)Cc2c(-c3ccc(F)cc3)cnn21 , please.
Given back: true (1)

Asked: Same lookup for CC1c2c(-c3ccc(F)cc3)cnn2CCN1C(=O)Nc1ccccc1 (stereo unspecified) , please.
Given back: false (0)

Asked: Same lookup for CN(C(=O)N1CCn2ncc(-c3ccc(F)cc3)c2C1)c1ccccc1 , please.
Given back: false (0)

Asked: Same lookup for C[C@@H]1Cn2ncc(-c3ccc(F)cc3)c2CN1C(=O)Nc1ccc(F)c(Cl)c1 , please.
Given back: true (1)

====

- assay-summary: Ratio of AUC (0 to infinity) in liver to plasma of C57BL/6 mouse liver at 5 mg/kg, po administered as single dose measured upto 24 hrs by LC-MS/MS analysis
- Type: ADME, organism-based
- reported-conditions: read-out: Ratio AUC
value-type: Kp at 24 h
// no unit, no text: just the number

Asked: Returns the measured Kp at 24 h for the input molecule. Input: C[C@H]1Cn2ncc(N3CCCC3=O)c2CN1C(=O)Nc1cc(F)c(F)c(F)c1
Given back: 3.2

Asked: Same lookup for C[C@H]1Cn2ncc(N3CCOCC3=O)c2CN1C(=O)Nc1ccc(F)c(Cl)c1 , please.
Given back: 2.6

====

- assay-summary: AUC (0 to infinity) in C57BL/6 mouse plasma at 1 mg/kg, iv administered as single dose measured upto 24 hrs by LC-MS/MS analysis
- Assay type: ADME, organism-based
- Design: dose 1 mg/kg, time < 24 hrs, route iv
value-type: AUC(0-inf) (ng·h/mL)
# unit: ng·h/mL | format: bare number

Asked: Returns the measured AUC(0-inf) for the input compound. Input: O=C(Nc1ccc(F)cc1)N1CCn2ncc(-c3ccc(F)cc3)c2C1
Given back: 208

====

- assay-summary: Cmax in C57BL/6 mouse plasma at 5 mg/kg, po administered as single dose measured upto 24 hrs by LC-MS/MS analysis
- Assay type: ADME, organism-based
- Parameters: dose 5 mg/kg, time < 24 hrs, route po
value-type: Cmax (ng/mL)
# unit: ng/mL | format: bare number

{"record-smiles": "C[C@H]1Cn2ncc(N3CCCC3=O)c2CN1C(=O)Nc1cc(F)c(F)c(F)c1", "observed-result": 1130}

The record that follows has no Cmax shown yet.
Asked: Returns the measured Cmax for the input compound. Input: C[C@H]1Cn2ncc(N3CCOCC3=O)c2CN1C(=O)Nc1ccc(F)c(Cl)c1
Given back: 1330

====

- assay-summary: AUC (0 to infinity) in C57BL/6 mouse plasma at 3 mg/kg, po administered as single dose measured upto 24 hrs by LC-MS/MS analysis
- Format: ADME, organism-based
- Design: time < 24 hrs, dose 3 mg/kg, route po
value-type: AUC(0-inf) (ng·h/mL)
# unit: ng·h/mL | format: bare number

Asked: Returns the measured AUC(0-inf) for the input compound. Input: O=C(Nc1ccc(F)cc1)N1CCn2ncc(-c3ccc(F)cc3)c2C1
Given back: 276

====

- assay-summary: Plasma protein binding in mouse assessed as free fraction incubated for 5 hrs by LC-MS/MS analysis
- Type: ADME, cell-free
The entries below are paired with their reported fraction unbound at 5 h.
// no unit, no text: just the number

{"record-smiles": "C[C@H]1Cn2ncc(N3CCOCC3=O)c2CN1C(=O)Nc1ccc(F)c(Cl)c1", "fraction unbound at 5 h": 0.31}

The record that follows has no fraction unbound at 5 h shown yet.
Asked: Returns the measured fraction unbound at 5 h for the input compound. Input: C[C@H]1Cn2ncc(N3CCCC3=O)c2CN1C(=O)Nc1cc(F)c(F)c(F)c1
Given back: 0.18

====

- assay-summary: Lyophilization solubility of the compound in phosphate buffer at pH 6.5 incubated for 1 hr under stirring condition and 2 hrs under shaking condition by HPLC-UV analysis
- Assay type: physicochemical
value-type: solubility at 3 h (µg/mL)
# unit: µg/mL | format: bare number

Study these solved cases before continuing.
{"record-smiles": "O=C(Nc1ccccn1)N1CCn2ncc(-c3ccc(F)cc3)c2C1", "solubility at 3 h / µg/mL": 2}
{"record-smiles": "C[C@H]1Cn2ncc(N3CCOCC3=O)c2CN1C(=O)Nc1cc(F)c(F)c(F)c1", "solubility at 3 h / µg/mL": 415}
{"record-smiles": "O=C(Nc1cccnc1)N1CCn2ncc(-c3ccc(F)cc3)c2C1", "solubility at 3 h / µg/mL": 98}
{"record-smiles": "O=C(Nc1ccccc1)N1CCn2nnc(-c3ccc(F)cc3)c2C1", "solubility at 3 h / µg/mL": 32}
{"record-smiles": "O=C(Nc1ccc(F)c(Cl)c1)N1CCn2ncc(N3CCCC3=O)c2C1", "solubility at 3 h / µg/mL": 160}

Asked: Returns the measured solubility at 3 h for the input compound. Input: O=C(Nc1ccc(F)c(Cl)c1)N1CCn2ncc(-c3ncc(F)cn3)c2C1
Given back: 6

Asked: Same lookup for C[C@H]1Cn2ncc(N3CCCC3=O)c2CN1C(=O)Nc1cc(F)c(F)c(F)c1 , please.
Given back: 430

Asked: Same lookup for O=C(Nc1ccccc1)N1CCn2ncc(-c3ccc(F)cc3)c2C1 , please.
Given back: 3

Asked: Same lookup for CCCc1cccc(NC(=O)N2CCn3ncc(-c4ccc(F)cc4)c3C2)c1 , please.
Given back: 4.4

Asked: Same lookup for O=C(Nc1cc(F)c(F)c(F)c1)N1CCn2ncc(N3CCCC3=O)c2C1 , please.
Given back: 150
